Sourced from ChEMBL document CHEMBL1148785

- System: Plasmodium falciparum
- experimentalDetails: Inhibition of Plasmodium falciparum protein farnesyltransferase at 0.5 nM by scintillation proximity assay
Please assign a class to every record based on measured inhibition, with ranges one: < 5%; two: ≥ 5% and < 20%; three: ≥ 20%

Below are worked cases with known answers.
[[record]]
molecule = "COC(=O)N1CCC(CN(C2Cc3cc(C#N)ccc3N(Cc3cncn3C)C2)S(=O)(=O)N(C)C)CC1 (configuration not stated)"
classlabel = "one"

[[record]]
molecule = "Cn1cncc1CN1CC(N(CC2CCN(C(=O)c3ccc(Cl)cc3)CC2)S(=O)(=O)c2ccccn2)Cc2cc(C#N)ccc21 (configuration not stated)"
classlabel = "two"

[[record]]
molecule = "CN(C)C(=O)N1CCC(CN(C2Cc3cc(C#N)ccc3N(Cc3cncn3C)C2)S(=O)(=O)c2ccccn2)CC1 (configuration not stated)"
classlabel = "three"

[[record]]
molecule = "Cn1cncc1CN1CC(N(CC2CCN(C(=O)OCC(F)(F)F)CC2)S(=O)(=O)c2ccccn2)Cc2cc(C#N)ccc21 (configuration not stated)"
classlabel = "three"


Prompt line: Where would CN(CCCN(C1Cc2cc(C#N)ccc2N(Cc2cncn2C)C1)S(=O)(=O)c1ccccn1)C(=O)OC(C)(C)C (configuration not stated) land among the classes by reported inhibition?
Response line: three

Prompt line: What do we get for CCCS(=O)(=O)N(Cc1ccccc1F)C1Cc2cc(C#N)ccc2N(Cc2cncn2C)C1 (configuration not stated) ?
Response line: two

Prompt line: What do we get for COC(=O)N1CCC(CN(C2Cc3cc(C#N)ccc3N(Cc3cncn3C)C2)S(=O)(=O)c2ccc(NC(C)=O)cc2)CC1 (configuration not stated) ?
Response line: one

Prompt line: What do we get for Cn1cnc(S(=O)(=O)N(CC2CCNCC2)C2Cc3cc(C#N)ccc3N(Cc3cncn3C)C2)c1 (configuration not stated) ?
Response line: one

====

Reported inhibition is given for each of the following compounds.
- Test system: Plasmodium falciparum
- experimentalDetails: Inhibition of Plasmodium falciparum protein farnesyltransferase at 0.5 nM by scintillation proximity assay

Prompt line: Entry under review: Cc1nc(C)c(S(=O)(=O)N(CC(=O)NC(C)(C)C)C2Cc3cc(C#N)ccc3N(Cc3cncn3C)C2)s1 (centres undefined) . Reported inhibition?
Response line: 2%

Prompt line: What do we get for Cn1cncc1CN1CC(N(CC2CCN(C(=O)OC(C)(C)C)CC2)S(=O)(=O)c2ccccn2)Cc2cc(C#N)ccc21 (centres undefined) ?
Response line: 19%

Prompt line: What do we get for Cn1cnc(S(=O)(=O)N(CCN2CCCC2=O)C2Cc3cc(C#N)ccc3N(Cc3cncn3C)C2)c1 (centres undefined) ?
Response line: 0%

Prompt line: What do we get for Cn1cncc1CN1CC(N(Cc2cccc3nsnc23)S(=O)(=O)c2ccccn2)Cc2cc(C#N)ccc21 (centres undefined) ?
Response line: 12%

====

- Tested on: Plasmodium falciparum
- experimentalDetails: Inhibition of Plasmodium falciparum protein farnesyltransferase at 0.5 nM by scintillation proximity assay
Everything with inhibition lower than 50% is not met; everything else, including exactly 50%, is met.

[[record]]
molecule = "Cn1cncc1CN1CC(N(CC(=O)NC(C)(C)C)S(=O)(=O)c2ccc(F)cc2)Cc2cc(C#N)ccc21 (stereo not drawn)"
classlabel = "not met"


Prompt line: Is it the case that Cn1cncc1CN1CC(N(CC2CCN(C(=O)c3cccs3)CC2)S(=O)(=O)c2ccccn2)Cc2cc(C#N)ccc21 (stereo not drawn) has inhibition reaching or exceeding 50%?
Response line: met

Prompt line: What do we get for CCCS(=O)(=O)N(CC1CCN(C(=O)OC)CC1)C1Cc2cc(C#N)ccc2N(Cc2cncn2C)C1 (stereo not drawn) ?
Response line: not met

Prompt line: What do we get for Cn1cncc1CN1CC(N(CC(=O)O)S(=O)(=O)c2ccccn2)Cc2cc(C#N)ccc21 (stereo not drawn) ?
Response line: not met

Prompt line: What do we get for CC(C)S(=O)(=O)N1CCC(CN(C2Cc3cc(C#N)ccc3N(Cc3cncn3C)C2)S(=O)(=O)c2ccccn2)CC1 (stereo not drawn) ?
Response line: met

Prompt line: What do we get for Cc1noc(C)c1CN(C1Cc2cc(C#N)ccc2N(Cc2cncn2C)C1)S(=O)(=O)c1cn(C)cn1 (stereo not drawn) ?
Response line: not met

Prompt line: What do we get for COCC(=O)N(Cc1ccccc1F)C1Cc2cc(C#N)ccc2N(Cc2cncn2C)C1 (stereo not drawn) ?
Response line: not met

====

- System: Plasmodium falciparum
- experimentalDetails: Antimalarial activity against Plasmodium falciparum K1
- Type: functional
- assayContext: Plasmodium falciparum, K1; read-out: ED50 (the source's name)
Reported EC50 is given for each of the following compounds.
Give the value, in units of nM, as a plain number.

# example entries with known answers
[[record]]
compound = "Cn1cnc(S(=O)(=O)N(CCCCCC(N)=O)C2Cc3cc(C#N)ccc3N(Cc3cncn3C)C2)c1 (stereo unspecified)"
valueobserved = 73

[[record]]
compound = "Cn1cncc1CN1CC(N(Cc2cccc(C(=O)O)n2)S(=O)(=O)c2ccccn2)Cc2cc(C#N)ccc21 (stereo unspecified)"
valueobserved = 800

[[record]]
compound = "COC(=O)c1ccnc(CN(C2Cc3cc(C#N)ccc3N(Cc3cncn3C)C2)S(=O)(=O)c2cn(C)cn2)c1 (stereo unspecified)"
valueobserved = 163


Prompt line: Entry under review: Cn1cncc1CN1CC(N(CC2CCN(S(C)(=O)=O)CC2)S(=O)(=O)c2ccccn2)Cc2cc(C#N)ccc21 (stereo unspecified) . Reported EC50?
Response line: 50

Prompt line: What do we get for Cn1cnc(S(=O)(=O)N(CCCCON2C(=O)c3ccccc3C2=O)C2Cc3cc(C#N)ccc3N(Cc3cncn3C)C2)c1 (stereo unspecified) ?
Response line: 100

Prompt line: What do we get for Cn1cncc1CN1CC(N(CC2CCN(C(=O)C3CC3)CC2)S(=O)(=O)c2ccccn2)Cc2cc(C#N)ccc21 (stereo unspecified) ?
Response line: 10

Prompt line: What do we get for Cn1cncc1CN1CC(N(CC2CCN(C(=O)OCC(F)(F)F)CC2)S(=O)(=O)c2ccccn2)Cc2cc(C#N)ccc21 (stereo unspecified) ?
Response line: 75

====

- System: Plasmodium falciparum
- experimentalDetails: Inhibition of Plasmodium falciparum protein farnesyltransferase at 0.5 nM by scintillation proximity assay
Everything with inhibition lower than 20% is NOT MET; everything else, including exactly 20%, is MET.

[[record]]
molecule = "COC(=O)c1cccc(CN(C2Cc3cc(C#N)ccc3N(Cc3cncn3C)C2)S(=O)(=O)c2ccccn2)n1 (stereo not drawn)"
classlabel = "MET"

[[record]]
molecule = "COC(=O)N(C)CCCN(C1Cc2cc(C#N)ccc2N(Cc2cncn2C)C1)S(=O)(=O)c1ccccn1 (stereo not drawn)"
classlabel = "NOT MET"

[[record]]
molecule = "Cn1cncc1CN1CC(N(Cc2ccc(S(C)(=O)=O)cc2)S(=O)(=O)c2cccc(F)c2)Cc2cc(C#N)ccc21 (stereo not drawn)"
classlabel = "NOT MET"

[[record]]
molecule = "Cn1cncc1CN1CC(N(CC2CCN(C(=O)C3CCCC3)CC2)S(=O)(=O)c2ccccn2)Cc2cc(C#N)ccc21 (stereo not drawn)"
classlabel = "MET"

[[record]]
molecule = "COC(=O)CN(C1Cc2cc(-c3ccccc3)ccc2N(Cc2cn(C)cn2)C1)S(=O)(=O)c1cn(C)cn1 (stereo not drawn)"
classlabel = "MET"


Prompt line: Is it the case that C=C(Br)CN(C1Cc2cc(-c3ccccc3)ccc2N(Cc2cncn2C)C1)S(=O)(=O)c1cn(C)cn1 (stereo not drawn) has inhibition reaching or exceeding 20%?
Response line: MET

Prompt line: What do we get for Cn1cnc(S(=O)(=O)N(Cc2ccc(C(=O)O)cc2)C2Cc3cc(C#N)ccc3N(Cc3cncn3C)C2)c1 (stereo not drawn) ?
Response line: NOT MET

Prompt line: What do we get for COCCCN(C1Cc2cc(C#N)ccc2N(Cc2cncn2C)C1)S(=O)(=O)c1cn(C)cn1 (stereo not drawn) ?
Response line: MET

====

- Test system: Plasmodium falciparum
- experimentalDetails: Inhibition of Plasmodium falciparum protein farnesyltransferase at 50 nM by scintillation proximity assay
Everything with inhibition lower than 70% is false (0); everything else, including exactly 70%, is true (1).

Below are worked cases with known answers.
[[record]]
molecule = "CCC(=O)N1CCC(CN(C2Cc3cc(C#N)ccc3N(Cc3cncn3C)C2)S(=O)(=O)c2ccccn2)CC1 (stereo not drawn)"
classlabel = "true (1)"

[[record]]
molecule = "Cn1cnc(S(=O)(=O)N(Cc2ccc(-n3cncn3)cc2)C2Cc3cc(C#N)ccc3N(Cc3cncn3C)C2)c1 (stereo not drawn)"
classlabel = "true (1)"

[[record]]
molecule = "CCS(=O)(=O)N1CCC(CN(C2Cc3cc(C#N)ccc3N(Cc3cncn3C)C2)S(=O)(=O)c2ccccn2)CC1 (stereo not drawn)"
classlabel = "true (1)"

[[record]]
molecule = "Cn1cncc1CN1CC(N(Cc2cccc(-n3cccn3)c2)S(=O)(=O)c2ccccn2)Cc2cc(C#N)ccc21 (stereo not drawn)"
classlabel = "true (1)"

[[record]]
molecule = "COC(=O)N1CCC(CN(C2Cc3cc(C#N)ccc3N(Cc3cncn3C)C2)S(=O)(=O)c2ccc(NC(C)=O)cc2)CC1 (stereo not drawn)"
classlabel = "false (0)"


Next up:
Prompt line: Is it the case that Cn1cncc1CN1CC(N(Cc2ccc(S(C)(=O)=O)cc2)S(=O)(=O)c2cccc(F)c2)Cc2cc(C#N)ccc21 (stereo not drawn) has inhibition reaching or exceeding 70%?
Response line: true (1)
